These data points were gathered from the DeepSol protein solubility set.

assay: soluble on expression in E. coli; label from the status in PepcDB or PDB records

>  <sequence.content>
MAEARPDSLTRSRAAKPAGEGAAFSPLYRQIKELLVQSLDRGEWKPGELIPSEIDLAARFQVSQGTVRKAVDELAAEHLLLRRQGKGTFVATHHEARVRYRFLRLAPDEEGEGGRAESRILECRRLRAPAEIARALELRAGETVVTIRRQLSMNHMPTVIDDLWLPGTHFRGLTLELLTASKAPLYGLFESEFGVSMVRADEKLRAVAASPEIAPLLGVEPGRPLLQVDRISYTYGDRPMEVRRGLYLTDHYHYRNSLN

>  <soluble on expression in E. coli>
soluble

$$$$
>  <sequence.content>
SLRLLLELKALNSIDKKQLSNYLIQGFIYNILKNTEYSWLHNWKKEKYFNFTLIPKKDIIENKRYYLIISSPDKRFIEVLHNKIKDLDIITIGLAQFQLRKTKKFDPKLRFPWVTITPIVLREGKIVILKGDKYYKVFVKRLEELKKYNLIKKKEPILEEPIEISLNQIKDGWKIIDVKDRYYDFRNKSFSAFSNWLRDLKEQSLRKYNNFCGKNFYFEEAIFEGFTFYKTVSIRIRINRGEAVYIGTLWKELNVYRKLDKEEREFYKFLYDCGLGSLNSMGFGFVNTKKNSAR

>  <soluble on expression in E. coli>
soluble

$$$$
